system: OVCAR-5; assay: NCI tumour cell line growth inhibition, 48 h
The source made the active and inactive calls. Rule as the data show it: active = GI50 up to about 1.1 µM and inactive = higher.

Molecule: Nc1nc2c(ncn2Cc2ccccc2CO)c(=O)[nH]1
System Name: OVCAR-5
GI50: > 100 µM (inactive)
//
Molecule: NS(=O)(=O)c1ccc(NC(=O)Nc2cccc3ccccc23)cc1
System Name: OVCAR-5
GI50: > 100 µM (inactive)
//
Molecule: CC(C)=NN/C=N\C(C#N)=C(/N)C#N
System Name: OVCAR-5
GI50: > 100 µM (inactive)
//
Molecule: CC(=O)c1c(SCCN2CCCCCC2)n(-c2ccccc2)c(=S)n(-c2ccccc2)c1=O
System Name: OVCAR-5
GI50: 24.4 µM (inactive)
//
Molecule: CCOP(=O)(OCC)C(Nc1ccc(Br)cc1)c1cccc([N+](=O)[O-])c1 (stereo not given)
System Name: OVCAR-5
GI50: 24.1 µM (inactive)
//
Molecule: Cc1cccc(NC2=NC(=O)C(CC(=O)Nc3ccc(Cl)cc3C)S2)c1 (stereo not given)
System Name: OVCAR-5
GI50: > 100 µM (inactive)
//
Molecule: [N-]=[N+]=Nc1ccccc1Oc1ccccc1
System Name: OVCAR-5
GI50: > 100 µM (inactive)
//
Molecule: Cc1ccc(S(=O)(=O)NNC(=O)Nc2ccc([N+](=O)[O-])cc2)cc1
System Name: OVCAR-5
GI50: > 100 µM (inactive)
//
Molecule: CC1(C)[C@H]2CC[C@@]13C(=O)N1C(=O)O[C@@H]([C@H]1Cl)C(Cl)(COCc1ccccc1)C(=O)OCCO[C@H]3C2 (stereo not given in full)
System Name: OVCAR-5
GI50: > 100 µM (inactive)
//
Molecule: O=C(NCCCN1CCN(CCCNC(=O)Nc2cc(Cl)ccc2Cl)CC1)Nc1cc(Cl)ccc1Cl
System Name: OVCAR-5
GI50: > 100 µM (inactive)
